# Tested on: rice
# ASSAY_EXPLANATION: Test Example 2: soil surface treatment, upland pot test
# Format: in vivo, Oryza sativa L.
# CONDITION_PARAMETERS: active ingredient 250 g/ha, observed 20th to 28th day
ASSAY_METRIC: Growth controlling degree (%) Rice

The examples below pair each entry with its known result.
COMPOUND | TARGET_SYSTEM | ASSAY_RESULT
CC(C)C(c1cnccc1C(F)(F)F)N(C)C(=O)C(F)=Cc1ccccc1 (centres unmarked) [Compound I-207] | rice | 40%
CC(C)C(c1cnccc1C(F)(F)F)N(C)C(=O)Cc1ccc(F)cc1 (centres unmarked) [I-21] | rice | 40%
COCC(=O)N(C)C(c1cnccc1C(F)(F)F)C(C)C (centres unmarked) [I-195] | rice | 40%

Fill in: Growth controlling degree (%) Rice on rice, entry CC(C)C(c1cnccc1C(F)(F)F)N(C)C(=O)Cc1ccccc1F (centres unmarked) [Compound I-25]
20%

Provide Growth controlling degree (%) Rice, tested on rice, for Cc1ccc(S(=O)(=O)N(C)C(c2cnccc2C(F)(F)F)C(C)C)cc1 (racemic) [I-130] .
40%

Look up and report Growth controlling degree (%) Rice, with rice as system, for CC(=Cc1ccccc1)C(=O)N(C)C(c1cnccc1C(F)(F)F)C(C)C (centres unmarked) [I-206]
40%

* * *

# Lookup of reported Growth controlling degree (%) Velvetleaf keyed by entry
# Test system: velvetleaf
# ASSAY_EXPLANATION: Test Example 2: soil surface treatment, upland pot test
# Assay type: in vivo, Abutilon theophrasti MEDIC.
# CONDITION_PARAMETERS: active ingredient 500 g/ha, observed 20th to 28th day

Record excerpt, results attached:
COMPOUND | TARGET_SYSTEM | Growth controlling degree (%) Velvetleaf
CC(C)C(c1cnccc1C(F)(F)F)N(C)S(=O)(=O)c1ccccc1 (stereo not shown) [I-117] | velvetleaf | 50%
CC(C)C(c1cnccc1C(F)(F)F)N(C)C(=O)Cc1cccc(C(F)(F)F)c1F (stereo not shown) [I-29] | velvetleaf | 70%
CC(C)C(c1cnccc1C(F)(F)F)N(C)C(=O)Cc1ccccc1[N+](=O)[O-] (stereo not shown) [I-39] | velvetleaf | 30%
CC(C)C(c1cnccc1C(F)(F)F)N(C)C(=O)N(C)c1ccccc1 (stereo not shown) [I-232] | velvetleaf | 70%
C=CC(=O)N(C)C(c1cnccc1C(F)(F)F)C(C)C (stereo not shown) [I-190] | velvetleaf | 50%
CCC(=O)N(C)C(c1cnccc1C(F)(F)F)C(C)C (stereo not shown) [I-163] | velvetleaf | 90%

State its Growth controlling degree (%) Velvetleaf for this compound: Cc1ccc(CC(=O)N(C)C(c2cnccc2C(F)(F)F)C(C)C)c(F)c1 (racemic) [I-109]
0%

# return recorded Growth controlling degree (%) Velvetleaf for input CC(C)C(c1cnccc1C(F)(F)F)N(C)C(=O)Cc1ccc(F)c(F)c1 (stereo not shown) [I-60]
70%

Look up and state reported Growth controlling degree (%) Velvetleaf for CC(C)C(c1cnccc1Cl)N(C)C(=O)Cc1ccccc1Cl (stereo not shown) [Compound I-81]
0%

Tell me measured Growth controlling degree (%) Velvetleaf for CC(C)C(c1cnccc1C(F)(F)F)N(C)S(=O)(=O)c1ccc(F)cc1 (racemic) [I-124] please.
80%

Query Growth controlling degree (%) Velvetleaf for CC(C)C(c1cnccc1C(F)(F)F)N(C)C(=O)Cc1ccsc1 (stereo not shown) [I-170]
30%

* * *

# Tested on: velvetleaf
# ASSAY_EXPLANATION: Test Example 2: soil surface treatment, upland pot test
# Format: in vivo, Abutilon theophrasti MEDIC.
# CONDITION_PARAMETERS: active ingredient 500 g/ha, observed 20th to 28th day
Param label: returns Condition met when Growth controlling degree (%) Velvetleaf < 70%, returns Condition not met otherwise, including exact equality.

COMPOUND | ASSIGNED_CLASS
CC(C)C(c1cnccc1C(F)(F)F)N(C)C(=O)Cc1c(F)ccc(F)c1F (stereo not drawn) [Compound I-17] | Condition not met
CC(C)C(c1cnccc1C(F)(F)F)N(C)C(=O)CC1C=CCC1 (stereo not drawn) [I-183] | Condition met
CC(C)C(c1cnccc1C(F)(F)F)N(C)C(=O)C=Cc1cccnc1 (stereo not drawn) [Compound I-184] | Condition met
CC(C)C(c1cnccc1C(F)(F)F)N(C)C(=O)Cc1cccc(F)c1 (stereo not drawn) [Compound I-20] | Condition not met

Field: next compound
For CC(C)C(c1cnccc1C(F)(F)F)N(C)C(=O)Nc1ccccc1 (stereo not drawn) [Compound I-230] , is the recorded Growth controlling degree (%) Velvetleaf below the cut-off of 70%?
Condition met

* * *

Measured Growth controlling degree (%) Japanese bulrush of individual entries
# Tested on: japanese bulrush
# ASSAY_EXPLANATION: Test Example 3: paddy pot test, application under submerged conditions
# Type: in vivo, Scirpus juncoides
# CONDITION_PARAMETERS: active ingredient 250 g/ha; submerged application at 0.5 leaf stage; visually observed 14 days after application; 0 = non-treated, 100 = complete kill
Put down the number, then write its unit next to it.

These recorded examples may help you get a feel for the data.
COMPOUND | ASSAY_RESULT
CC(C)C(c1cnccc1C(F)(F)F)N(C)C(=O)CSc1ccccc1 (stereo not drawn) [I-256] | 90%
CC(C)C(c1cnccc1C(F)(F)F)N(C)C(=O)Cc1ccc(OC(F)F)cc1 (racemic) [I-128] | 90%

// below: Growth controlling degree (%) Japanese bulrush requested for another compound
Supply recorded Growth controlling degree (%) Japanese bulrush for CC(C)C(c1cnccc1C(F)(F)F)N(C)C(=O)Cc1ccc(Br)c(F)c1 (racemic) [Compound I-129] here.
90%

* * *

# Tested on: velvetleaf
# ASSAY_EXPLANATION: Test Example 1: foliage treatment, upland pot test
# Assay type: in vivo, Abutilon theophrasti MEDIC.
# CONDITION_PARAMETERS: active ingredient 500 g/ha, observed 18th to 23rd day, 0 = non-treated, 100 = complete kill
Checkbox rule: Growth controlling degree (%) Velvetleaf lower than 70% = Satisfied; Growth controlling degree (%) Velvetleaf not lower than 70% = Not satisfied.

MOLECULE | TARGET_SYSTEM | ASSIGNED_CLASS
CC(C)C(c1cnccc1Cl)N(C)C(=O)Cc1cccc(C(F)(F)F)c1 (stereo not shown) [I-68] | velvetleaf | Not satisfied
CC(Oc1ccc(Br)cc1)C(=O)N(C)C(c1cnccc1C(F)(F)F)C(C)C (mixture of isomers) [I-132] | velvetleaf | Satisfied
CC(C)C(c1cnccc1C(F)(F)F)N(C)C(=O)CC(C)(C)C (stereo not shown) [I-194] | velvetleaf | Satisfied

Check if Growth controlling degree (%) Velvetleaf falls below 70% for CC(C)C(c1cnccc1C(F)(F)F)N(C)C(=O)C=Cc1ccc(C(F)(F)F)cc1 (stereo not shown) [I-186] .
Satisfied

Strictly below 70%: is that where Growth controlling degree (%) Velvetleaf of CC(C)C(c1cnccc1C(F)(F)F)N(C)C(=O)Cc1c(F)cccc1Cl (stereo not shown) [I-33] sits?
Not satisfied

I'd appreciate it if you could check whether CC(C)C(c1cnccc1C(F)(F)F)N(C)C(=O)CC1CCCCC1 (stereo not shown) [I-164] has Growth controlling degree (%) Velvetleaf smaller than 70%.
Not satisfied

Growth controlling degree (%) Velvetleaf strictly < 70% for this molecule? COc1ccc(CC(=O)N(C)C(c2cnccc2C(F)(F)F)C(C)C)cc1 (stereo not shown) [I-38]
Not satisfied

# strict comparison: is reported Growth controlling degree (%) Velvetleaf < 70%? input = COCC(=O)N(C)C(c1cnccc1C(F)(F)F)C(C)C (stereo not shown) [I-195]
Satisfied

For this molecule, is Growth controlling degree (%) Velvetleaf lower than 70%? CC(C)C(c1cnccc1C(F)(F)F)N(C)C(=O)Cc1cccc(C(F)(F)F)c1 (stereo not shown) [I-40]
Not satisfied

For COc1ccc(C=CC(=O)N(C)C(c2cnccc2C(F)(F)F)C(C)C)cc1 (stereo not shown) [I-182] , is the recorded Growth controlling degree (%) Velvetleaf below the cut-off of 70%?
Satisfied

A record lists CC(C)C(c1cnccc1C(F)(F)F)N(C)C(=O)Cc1ccc(OC(F)F)cc1 (racemic) [I-128] . Is its Growth controlling degree (%) Velvetleaf below 70%?
Not satisfied

* * *

// reported Growth controlling degree (%) Corn for each item listed
# System: corn
# ASSAY_EXPLANATION: Test Example 2: soil surface treatment, upland pot test
# Type: in vivo, Zea mays L.
# CONDITION_PARAMETERS: active ingredient 500 g/ha, observed 20th to 28th day
Return type: number; implicit unit %.

Known Growth controlling degree (%) Corn results, listed for orientation:
COMPOUND | UNIT_ABBREV | Growth controlling degree (%) Corn
CC(C)C(c1cnccc1C(F)(F)F)N(C)C(=O)C=Cc1ccc(Br)cc1 (centres unmarked) | % | 10
CC(C)C(c1cnccc1C(F)(F)F)N(C)C(=O)Cc1cccc(C(F)(F)F)c1F (centres unmarked) | % | 20
CC=CC(=O)N(C)C(c1cnccc1C(F)(F)F)C(C)C (centres unmarked) | % | 10
CC(C)C(c1cnccc1C(F)(F)F)N(C)C(=O)Cc1cc(F)ccc1F (centres unmarked) | % | 10
CC(C)C(c1cnccc1Cl)N(C)C(=O)Cc1ccccc1 (centres unmarked) | % | 20
CC(C)C(c1cnccc1C(F)(F)F)N(C)C(=O)SCc1ccccc1 (racemic) | % | 20
C=CC(=O)N(C)C(c1cnccc1C(F)(F)F)C(C)C (centres unmarked) | % | 10
CC(C)C(c1cnccc1C(F)(F)F)N(C)C(=O)Cc1ccc(C(F)(F)F)cc1F (centres unmarked) | % | 30

Return the recorded Growth controlling degree (%) Corn value; entry: Cc1cccc(CC(=O)N(C)C(c2cnccc2C(F)(F)F)C(C)C)c1 (centres unmarked)
40

Identify measured Growth controlling degree (%) Corn corresponding to COc1ccc(C=CC(=O)N(C)C(c2cnccc2C(F)(F)F)C(C)C)cc1 (centres unmarked)
10

Dear colleague, please send me the reported Growth controlling degree (%) Corn for CC(C)C(c1cnccc1C(F)(F)F)N(C)C(=O)COc1ccccc1F (centres unmarked) when you can.
40

Tell me measured Growth controlling degree (%) Corn for CC(C)C(c1cnccc1Cl)N(C)C(=O)Cc1ccccc1F (centres unmarked) please.
10

Supply recorded Growth controlling degree (%) Corn for CC(C)C(c1cnccc1C(F)(F)F)N(C)C(=O)N(C)c1ccccc1 (centres unmarked) here.
30
